- Target Or System: Albumin (Bos taurus)
- Sequence (P02769 whole entry): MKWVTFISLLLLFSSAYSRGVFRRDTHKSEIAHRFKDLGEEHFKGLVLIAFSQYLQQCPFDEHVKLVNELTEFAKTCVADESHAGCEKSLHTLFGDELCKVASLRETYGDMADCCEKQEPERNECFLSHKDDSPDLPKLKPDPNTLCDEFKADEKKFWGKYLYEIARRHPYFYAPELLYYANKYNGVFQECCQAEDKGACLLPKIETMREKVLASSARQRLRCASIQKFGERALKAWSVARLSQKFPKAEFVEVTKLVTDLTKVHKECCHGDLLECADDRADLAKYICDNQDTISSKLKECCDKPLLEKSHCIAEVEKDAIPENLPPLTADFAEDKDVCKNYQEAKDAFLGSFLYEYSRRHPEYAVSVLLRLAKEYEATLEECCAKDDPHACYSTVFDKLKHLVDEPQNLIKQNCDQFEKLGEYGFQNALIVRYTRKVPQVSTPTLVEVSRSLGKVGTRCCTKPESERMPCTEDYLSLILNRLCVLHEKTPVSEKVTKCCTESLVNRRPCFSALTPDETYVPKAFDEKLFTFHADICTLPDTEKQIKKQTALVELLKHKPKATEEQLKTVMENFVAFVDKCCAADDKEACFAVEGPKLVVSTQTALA
- Assay Info: Binding affinity to bovine serum albumin assessed as retention time for compound-protein complex formation at 0.5 mg/ml by size exclusion chromatographic method (reference value: 16 mins)
- Type: ADME
- Condition Context: cattle
Endpoint Label: Retention time

// worked examples, Retention time included
O=C(O[C@@H]1O[C@@H]2COC(=O)c3cc(O)c(O)c(O)c3-c3c(cc(Oc4c(C(=O)O)cc(O)c(O)c4O)c(O)c3O)C(=O)O[C@H]2[C@H](OC(=O)c2cc(O)c(O)c(O)c2)[C@H]1OC(=O)c1cc(O)c(O)c(O)c1)c1cc(O)c(O)c(O)c1 : 9 to 12 min
O=C(O[C@@H]1O[C@@H]2COC(=O)c3cc(O)c(O)c(O)c3-c3c(cc(Oc4c(C(=O)O[C@@H]5O[C@@H]6COC(=O)c7cc(O)c(O)c(O)c7-c7c(cc(O)c(O)c7O)C(=O)O[C@H]6[C@H](OC(=O)c6cc(O)c(O)c(O)c6)[C@H]5OC(=O)c5cc(O)c(O)c(O)c5)cc(O)c(O)c4O)c(O)c3O)C(=O)O[C@H]2[C@H](OC(=O)c2cc(O)c(O)c(O)c2)[C@H]1OC(=O)c1cc(O)c(O)c(O)c1)c1cc(O)c(O)c(O)c1 : 9 to 12 min

The compound identified as O=C(O[C@H]1[C@@H]2OC(=O)c3cc(Oc4c(C(=O)O)cc(O)c(O)c4O)c(O)c(O)c3-c3c(cc(O)c(O)c3O)C(=O)OC[C@H]2OC(O)[C@@H]1OC(=O)c1cc(O)c(O)c(O)c1)c1cc(O)c(O)c(O)c1 (stereo partly drawn) registered its Retention time at 9 to 12 min
